measurement_target: PfPFD3 (Prefoldin subunit 3, PF3D7_0718500) (Plasmodium falciparum, UniProt Q8IBR6)
Construct: recombinant 6x-His-PfPFD3 (CDS in pET-28a(+)), RED-NHS labelled; with PfPFD1 (PF3D7_1107500)
Sequence (Q8IBR6 entry or part of it): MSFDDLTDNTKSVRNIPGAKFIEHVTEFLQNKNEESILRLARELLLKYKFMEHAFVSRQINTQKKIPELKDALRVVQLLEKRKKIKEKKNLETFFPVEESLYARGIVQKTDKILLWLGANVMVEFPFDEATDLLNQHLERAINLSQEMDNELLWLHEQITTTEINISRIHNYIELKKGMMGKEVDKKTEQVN
Sequence (Q8IIS7 entry or part of it, further chain): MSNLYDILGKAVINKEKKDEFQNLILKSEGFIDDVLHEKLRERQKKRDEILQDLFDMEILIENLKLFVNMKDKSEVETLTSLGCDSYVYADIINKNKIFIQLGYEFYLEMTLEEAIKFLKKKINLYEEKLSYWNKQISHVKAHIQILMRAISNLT
experiment: competitive microscale thermophoresis: labelled PfPFD3-PfPFD1 complex titrated with BPD
experimental_readout: Kd

- compound: "OC(CCN1CCCCC1)(c1ccccc1)C1CC2C=CC1C2 (stereo not shown)"
  endpoint_result: "1990 nM"
